Numbers sourced from PubChem BioAssay AID248.

- Test system: L1210 leukemia ip in BDF1 mice, survival T/C
- test_method_notes: NCI In Vivo Anticancer Drug Screen. Data for tumor model L1210 Leukemia (intraperitoneal) in B6D2F1 (BDF1) mice
- protocol_conditions: endpoint: mean survival time; dose: 100.0 mg/kg/injection; schedule: Q04DX003 (ip); vehicle: saline; higher = longer survival
Toxic doses and inconclusive results are not listed.
Listed below: T/C values for each entry.
recorded_endpoint: T/C

# molecule, recorded_endpoint, val
records = [
    ("C#CCNCc1ccccc1", "T/C", "98 % of control"),
    ("Oc1cc(Cl)ccc1Cl", "T/C", "95 % of control"),
    ("CCCNCCN", "T/C", "97 % of control"),
    ("CN(CCc1cnc2nc(N)nc(N)c2n1)c1ccc(C(=O)NC(CCC(=O)O)C(=O)O)cc1 (stereo not given)", "T/C", "110 % of control"),
    ("COc1cc([N+](=O)[O-])c(C)cc1NCc1ccc(OC)c(OC)c1", "T/C", "97 % of control"),
    ("COC(=O)C(CCCN=C(N)N)NC(=O)OCc1ccccc1 (stereo not given)", "T/C", "105 % of control"),
    ("OC1(C#CC#CC2(O)CCCCC2)CCCCC1", "T/C", "92 % of control"),
    ("O=C(O)Cc1sc(=O)[nH]c1O", "T/C", "102 % of control"),
    ("CN(C)CC/C=C1\\c2ccccc2CSc2ccccc21", "T/C", "97 % of control"),
    ("Cc1ccc(OS(=O)(=O)C2CC2c2ccccc2)cc1 (stereo not given)", "T/C", "102 % of control"),
    ("CCN(CC)CCCC(C)NCCCN (stereo not given)", "T/C", "90 % of control"),
    ("CC(C(=O)N1c2ccccc2Sc2ccccc21)[N+](C)(C)C (stereo not given)", "T/C", "104 % of control"),
    ("COc1ccc2c(O)c(Oc3ccccc3)c(=O)oc2c1", "T/C", "87 % of control"),
    ("O=C(O)C1CC(Br)C2CC1C(=O)O2 (stereo not given)", "T/C", "91 % of control"),
    ("CCOC(=O)C(=CC(CC)C(=O)OCC)C(=O)OCC (stereo not given) (tested in a mixture with another compound)", "T/C", "93 % of control"),
    ("CC1(C)/C(=C\\S(=O)(=O)O)C2CCC1C2 (stereo not given)", "T/C", "110 % of control"),
    ("CC1=CC(=O)C=C(C(C)C)/C1=C(\\c1ccccc1C(=O)O)c1c(C)cc(OP(=O)(O)O)cc1C(C)C", "T/C", "106 % of control"),
    ("CC(N)C(O)c1cccc(O)c1 (stereo not given)", "T/C", "97 % of control"),
    ("CC(CS(=O)(=O)O)N1CCN(CCO)CC1 (stereo not given)", "T/C", "108 % of control"),
    ("CN(C)/C=C(/C#N)C(=O)N1CCCC1", "T/C", "101 % of control"),
    ("CC(C)OCCCN=C(N)N", "T/C", "96 % of control"),
    ("OCCc1nn[nH]n1", "T/C", "104 % of control"),
    ("CN(C)/N=C\\c1ccc(C(=O)O)cc1", "T/C", "109 % of control"),
    ("NNC(=O)CC(=O)NN", "T/C", "110 % of control"),
    ("N#C/C=C/C1CCCCC1", "T/C", "105 % of control"),
    ("O=C(O)c1nccc2c([N+](=O)[O-])cccc12", "T/C", "97 % of control"),
    ("CC#CC(C)=O", "T/C", "100 % of control"),
    ("CC(N)(Cc1ccc(O)c(O)c1)C(=O)O (stereo not given)", "T/C", "103 % of control"),
    ("OCC(O)COc1cccc2cccnc12 (stereo not given)", "T/C", "110 % of control"),
    ("CCCCCCCCCCCCc1ccc(CS)cc1", "T/C", "92 % of control"),
    ("COc1ccc2c(C(=O)CCC(=O)O)cccc2c1", "T/C", "104 % of control"),
    ("CCSc1cc(C(=O)O)cc([N+](=O)[O-])c1", "T/C", "104 % of control"),
    ("[O-][N+]1=CCCC1", "T/C", "104 % of control"),
    ("CC1CC(C)(C)N=C(C(C)CC(C)(C)C)O1 (stereo not given)", "T/C", "105 % of control"),
    ("OC1COC(O)C(O)C1O (stereo not given)", "T/C", "104 % of control"),
    ("O=S(=O)(CC(Cl)c1ccccc1)c1ccc(F)cc1 (stereo not given)", "T/C", "91 % of control"),
    ("Nc1nc2c(c(-c3ccccc3)n1)CN(CCC(=O)O)C2=O", "T/C", "98 % of control"),
    ("CCCC(C(=O)O)C(O)(CC(=O)O)C(=O)O (stereo not given)", "T/C", "101 % of control"),
    ("O=C(NNCCO)C(O)C(O)C(O)C(O)CO (stereo not given)", "T/C", "97 % of control"),
    ("CN(C)CC1CCCCC1=O (stereo not given)", "T/C", "103 % of control"),
    ("[O]=[Hf]=[O]", "T/C", "96 % of control"),
    ("CCCC/C=C/Br", "T/C", "100 % of control"),
    ("O=S(=O)(O)c1ccc(O)c2ncccc12", "T/C", "95 % of control"),
    ("NC(=O)CNCCS(=O)(=O)O", "T/C", "97 % of control"),
    ("CC1CCN(C(=S)[S-])CC1.CC1CCN(C(=S)[S-])CC1.[Zn]", "T/C", "103 % of control"),
    ("CCN(CC)Cc1ccccn1", "T/C", "96 % of control"),
    ("CC1(C(=O)O)C2C=CC(C2)C1C(=O)O (stereo not given)", "T/C", "96 % of control"),
    ("CN1CCCC(C)(CN2c3ccccc3Sc3ccccc32)C1 (stereo not given)", "T/C", "111 % of control"),
    ("O=C(SCc1ccccc1)C(O)c1ccccc1 (stereo not given)", "T/C", "94 % of control"),
    ("CC(C)c1sc([S-])n[n+]1-c1ccccc1", "T/C", "101 % of control"),
    ("N#CCCSCCC#N", "T/C", "115 % of control"),
    ("COC(=O)C1OC(CO)C(O)C1O (stereo not given)", "T/C", "110 % of control"),
    ("COc1ccc2c(c1)CCNC2CCO (stereo not given)", "T/C", "103 % of control"),
    ("N#C/C([SH2+])=C(/[SH2+])C#N.N#C/C([SH2+])=C(/[SH2+])C#N.N#C/C([SH2+])=C(/[SH2+])C#N.N#C/C([SH2+])=C(/[SH2+])C#N.[Co+3].[Co+3].c1ccc([P+](c2ccccc2)(c2ccccc2)c2ccccc2)cc1", "T/C", "97 % of control"),
    ("CCC(OBr)C1COC(Nc2ccccc2)O1 (stereo not given)", "T/C", "95 % of control"),
]
